B1: Azoarcus group I ribozyme (parent)
chain: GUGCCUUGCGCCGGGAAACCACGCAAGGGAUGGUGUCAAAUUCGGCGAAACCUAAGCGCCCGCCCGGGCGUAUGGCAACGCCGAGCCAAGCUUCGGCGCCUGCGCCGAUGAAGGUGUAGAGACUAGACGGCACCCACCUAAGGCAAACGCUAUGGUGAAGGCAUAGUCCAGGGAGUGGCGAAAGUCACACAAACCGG

Variants of: B1
Experiment: reverse-splicing fitness (ratio to wild type); higher = more active; in vitro selection; Mg2+ level not given
reverse-splicing fitness listing for selected variants.
Please reply with the value in numeric form only.

Answered examples (5):
mutation_code: C82A A120C A145C C150U C169U U176A
value_observed: 0.0127
--
mutation_code: C82U A111U A120G A145C C150U C169U U176A
value_observed: 0.0187
--
mutation_code: C82A A111G A145U C150G C169A U176A
value_observed: 0.0104
--
mutation_code: A145C C150G C169A
value_observed: 0.0221
--
mutation_code: C82A A111C A120U C150G C169A U176A
value_observed: 0.00579

If you can, please state the reported reverse-splicing fitness value of C150A C169U U176A .
0.0369

If you can, please state the reported reverse-splicing fitness value of C82A A145U U176A .
0.386

If you can, please state the reported reverse-splicing fitness value of C82U A111C A120G A145C C150U C169A U176C .
0.00554
